assayed-target: SMO-D473H (Homo sapiens, UniProt Q99835, D473H)
Construct: expressed in transfected cells; host or cells: C3H10T½ cells (reporter assay)
Sequence (Q99835 28-787 D473H): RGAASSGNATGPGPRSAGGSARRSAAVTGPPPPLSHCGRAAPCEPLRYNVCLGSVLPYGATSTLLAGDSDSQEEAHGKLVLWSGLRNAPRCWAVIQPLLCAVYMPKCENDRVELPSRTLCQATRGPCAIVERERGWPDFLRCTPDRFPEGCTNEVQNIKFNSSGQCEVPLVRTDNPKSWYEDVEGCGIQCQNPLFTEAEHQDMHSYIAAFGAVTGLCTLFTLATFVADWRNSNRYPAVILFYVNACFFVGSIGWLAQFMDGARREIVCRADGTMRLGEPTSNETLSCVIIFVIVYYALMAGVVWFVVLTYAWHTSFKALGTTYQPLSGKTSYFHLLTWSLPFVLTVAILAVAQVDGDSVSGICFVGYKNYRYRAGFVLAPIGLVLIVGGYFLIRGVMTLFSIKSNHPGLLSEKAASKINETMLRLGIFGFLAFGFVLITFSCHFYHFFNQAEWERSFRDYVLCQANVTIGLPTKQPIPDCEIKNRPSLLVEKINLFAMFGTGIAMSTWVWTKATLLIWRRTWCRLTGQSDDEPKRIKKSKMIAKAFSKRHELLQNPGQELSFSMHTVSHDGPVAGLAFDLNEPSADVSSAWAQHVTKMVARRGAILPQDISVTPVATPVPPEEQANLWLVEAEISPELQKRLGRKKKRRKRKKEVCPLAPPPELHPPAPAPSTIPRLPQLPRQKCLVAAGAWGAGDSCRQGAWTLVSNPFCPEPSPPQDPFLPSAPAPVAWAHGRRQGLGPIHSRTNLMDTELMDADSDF
assay-text: Gli-luciferase reporter assay in C3H10T½ cells transfected with SMO-D473H
Assay type: cell-based
conditions-used: screen at 1 μM compound
observed-property: activity against SMO-D473H, inhibition of Gli-luciferase activity

smiles_data=C[C@@H]1CN(c2ccc(C(=O)Nc3ccc(Cl)c(NC(=O)c4cccc(Cl)c4)c3)cn2)C[C@H](C)N1 result="improved potencies"
smiles_data=O=C(Nc1ccc(Cl)c(NC(=O)c2cccc(Cl)c2)c1)c1ccc(N2CCC(O)CC2)nc1 result="improved potencies"

FYI, the data here is from patent US9910050B2.
